Just for reference, paper PMC10663500 is where these values come from.

Molecular target: T1, human programmed cell death protein 1 (hPD-1) C93S (aa 24-167) (Homo sapiens, UniProt Q15116, C93S)
T1 construct: made as a fusion with a TEV site and human Fc; the Fc was cut off with TEV protease; source: Expi293F, purified (Protein A, TEV cleavage of Fc, SEC; monomer fractions); not shown: Fc (human), C-terminal, cleaved
T1 sequence (Q15116 24-167 C93S): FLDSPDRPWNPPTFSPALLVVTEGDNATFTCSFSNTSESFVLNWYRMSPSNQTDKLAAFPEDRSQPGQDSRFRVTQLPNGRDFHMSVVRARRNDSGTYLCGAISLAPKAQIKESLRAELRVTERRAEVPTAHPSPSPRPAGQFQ
Test: SPR; Carterra LSA; Fab from the ammonium sulfate precipitate of the culture supernatant immobilised on a NiHC200M chip; hPD-1 (1-1024 nM) or mPD-1-Fc (4-1024 nM) as analyte, fourfold dilution series, no regeneration; HBS-EP pH 7.4, 25 °C; medians over the spots of a construct, KD = koff/kon
Details: one partner purified
Measured kon, listed per entry for reference.
Dear colleague, please return just the value in M⁻¹ s⁻¹, with no unit written.

binder | kon / M⁻¹ s⁻¹
toripalimab Fab H.W110Y (Fab, V domains shown, heavy chain of Sm3 with this change; numbers count from the chain's first residue; as the light chain of Sm3; source: Brevibacillus, culture supernatant (ammonium sulfate precipitate); not shown: 6xHis, C-terminal, kept; 6xHN, C-terminal, kept) VH: QGQLVQSGAEVKKPGASVKVSCKASGYTFTDYEMHWVRQAPIHGLEWIGVIESETGGTAYNQKFKGRVTITADKSTSTAYMELSSLRSEDTAVYYCAREGITTVATTYYYYFDVWGQGTTVTVSS VL: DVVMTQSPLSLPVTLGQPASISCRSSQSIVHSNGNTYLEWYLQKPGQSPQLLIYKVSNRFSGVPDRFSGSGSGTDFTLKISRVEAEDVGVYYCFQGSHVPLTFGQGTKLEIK | 6610
toripalimab Fab L.P100F (Fab, V domains shown, as the heavy chain of Sm3; light chain of Sm3 with this change; numbers count from the chain's first residue; source: Brevibacillus, culture supernatant (ammonium sulfate precipitate); not shown: 6xHis, C-terminal, kept; 6xHN, C-terminal, kept) VH: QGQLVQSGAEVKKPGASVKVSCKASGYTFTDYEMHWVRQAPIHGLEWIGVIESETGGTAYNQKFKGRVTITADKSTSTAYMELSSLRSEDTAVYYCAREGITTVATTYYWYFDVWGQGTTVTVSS VL: DVVMTQSPLSLPVTLGQPASISCRSSQSIVHSNGNTYLEWYLQKPGQSPQLLIYKVSNRFSGVPDRFSGSGSGTDFTLKISRVEAEDVGVYYCFQGSHVFLTFGQGTKLEIK | 7060

Now for a further binder.
So, toripalimab Fab L.V99W (Fab, V domains shown, as the heavy chain of Sm3; light chain of Sm3 with this change; numbers count from the chain's first residue; source: Brevibacillus, culture supernatant (ammonium sulfate precipitate); not shown: 6xHis, C-terminal, kept; 6xHN, C-terminal, kept) VH: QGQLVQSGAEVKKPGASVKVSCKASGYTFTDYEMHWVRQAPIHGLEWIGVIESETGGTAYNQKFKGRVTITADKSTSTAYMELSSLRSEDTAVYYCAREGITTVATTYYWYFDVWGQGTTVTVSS VL: DVVMTQSPLSLPVTLGQPASISCRSSQSIVHSNGNTYLEWYLQKPGQSPQLLIYKVSNRFSGVPDRFSGSGSGTDFTLKISRVEAEDVGVYYCFQGSHWPLTFGQGTKLEIK ? Its kon was 11500
